Test system: HCT-116
experimental-details: NCI tumour cell line growth inhibition, 48 h
Activity calls are given as the source filed them. Cut-off read from the data, not from the text of the source: active = GI50 up to about 1.1 µM and inactive = higher.
measured-property: GI50

Known GI50 results, listed for orientation:
CNC(=O)OCc1nc(SC)n(C)c1COC(=O)NC | 167 µM (inactive)
CCOC(=O)CC(=O)ON(C)C(=O)Cc1ccccc1 | > 100 µM (inactive)
CN(C)c1ccc(/C=C2\N=C(c3ccccc3)N(c3nc4ccc(Sc5ccccc5)cc4[nH]3)C2=O)cc1 | 36.3 µM (inactive)
Cn1c(=O)c2c(no[n+]2[O-])n(C)c1=O | > 100 µM (inactive)
CC(C)=CC(=O)C/C(=N\NC(N)=S)C(=O)Nc1ccc(Cl)cc1 | > 100 µM (inactive)

In the following, a different compound is considered.
Tell me measured GI50 for O=C(CCC/C(CC(=O)c1ccc(Br)cc1)=N\O)Nc1ccccc1 please.
> 100 µM (inactive)

====

Tested on: UO-31
experimental-details: NCI tumour cell line growth inhibition, 48 h
Activity calls are given as the source filed them. Cut-off read from the data, not from the text of the source: active = GI50 up to about 1.1 µM and inactive = higher.
Can you answer with just one of these options? yes = active, no = inactive

Known results for compounds:
C/C(CC(=O)Nc1cccc([N+](=O)[O-])c1)=N\NC(=O)C[n+]1ccccc1 | no
CC1(n2nc(-c3ccccc3)n(-c3ccccc3)c2=O)CSC1 | no
CC(C)=CCCC1(C)C=Cc2c(c(C)cc3c2[nH]c2cc(O)ccc23)O1 (centres undefined) | no
CC(=O)OCCCC(NC(=O)OC(C)(C)C)C(=O)NC(CCCOC(C)=O)C(=O)NC(Cc1ccc([N+](=O)[O-])cc1)C(=O)NCC(=O)OCc1ccccc1 (centres undefined) | no
CCOC(=O)C1C(c2ccc(OC)cc2)c2c(n[nH]c2O)CC1(C)O (centres undefined) | no

So what was the verdict on COC(COC(=O)N1CCN(C=O)CC1)C1=C(N2CC2)C(=O)C(C)=C(N2CC2)C1=O (centres undefined) in this test?
yes

What did the test return for COc1cccc(CCn2c(N)c(-c3ccccc3)c3ccc([N+](=O)[O-])cc3c2=O)c1 ?
no

Assay result, entry CN(CC(=O)N1CC(CCl)c2ccc([N+](=O)[O-])cc21)CC(=O)N1CC(CCl)c2ccc([N+](=O)[O-])cc21 (centres undefined) — outcome?
no

Hello, I am checking results. What call was entered for Cn1c(=O)n(CC2CS2)c2ccccc21 (centres undefined) ?
no

====

Test system: TK-10
experimental-details: NCI tumour cell line growth inhibition, 48 h
Activity calls are given as the source filed them. Cut-off read from the data, not from the text of the source: active = GI50 up to about 1.1 µM and inactive = higher.
// classify into class 1 for active, class 0 for inactive

Worked examples, 10 molecules total:
O=C(c1ccccc1)[C@H]1Nc2ccc(Cl)cc2[C@H]2OCCC[C@@H]12 | class 0
CC(C)(CC1(C)NC(=O)NC1=O)OCc1ccccc1 (stereo unspecified) | class 0
Cn1c(=O)sc2cc(C(=S)N3CCOCC3)ccc21 | class 0
COc1cc(C2C3=C(CCC3=O)Oc3cc4c(cc32)OCO4)cc(OC)c1OC (stereo unspecified) | class 1
O=C1CCC2(CC1)Cc1ccccc1C2O (stereo unspecified) | class 0
COc1ccc([C@H]2CC(=O)C[C@H](c3ccc(OC)cc3OC)C23C(=O)c2ccccc2C3=O)c(OC)c1 | class 0
O=c1[nH]n(Cc2ccccn2)c2ccc([N+](=O)[O-])cc12 | class 0
C=C(C)C1CC=C(C)C(=O)C1 (stereo unspecified) | class 0
Ic1ncnc2c1ncn2C1CCCO1 (stereo unspecified) | class 0
O=C1CC(/C=C/c2ccco2)=C(O)C1=O | class 0

Switching to the query record.
Short answer needed: outcome of this test for CC1CCC2c3c([nH]c4ccccc34)C3C(=O)N(c4ccccc4)C(=O)C3C2C1 (stereo unspecified) ?
class 0

====

System: NCI-H460
experimental-details: NCI tumour cell line growth inhibition, 48 h
Calls of active or inactive are those of the source. Rule as the data show it: active = GI50 up to about 1.1 µM and inactive = higher.
measured-property: GI50

[N-]=[N+]=NC1(c2ccccc2)C(=O)c2cccc3c2N(CCC3)C1=O (stereo unspecified) | 92.3 µM (inactive)

Read the entry CCOc1cc(NC(C)=O)ccc1C(=O)NNS(=O)(=O)c1ccc(NC(C)=O)cc1 and write its reported GI50.
39.6 µM (inactive)

Provide GI50 value for the following compound: CCOC(=O)C(C)(C)Oc1ccc(/C=C/C(=O)c2ccc(Cl)cc2)cc1
28.7 µM (inactive)

Tell me GI50 reported for Clc1cc(-c2ccccc2)nc(Nc2nc3ccccc3[nH]2)n1
19 µM (inactive)

Using known records, supply GI50 for C=CCCC(=O)CC(O)(C(F)(F)F)C(F)(F)F
> 100 µM (inactive)

Input O=C(CCN1CCOCC1)Nc1ccc2sc3ccccc3c(=O)c2n1 , output reported GI50.
37.8 µM (inactive)

====

System: NCI-H23
experimental-details: NCI tumour cell line growth inhibition, 48 h
The source made the active and inactive calls. Rule as the data show it: active = GI50 up to about 1.1 µM and inactive = higher.
Respond only with the outcome that fits, drawn from true = active, false = inactive

CC(C)(C)C(=O)/C=C/c1ccc(Oc2ccccc2)cc1 | false
O=S(=O)(N/C(=N\O)Nc1ccc(Cl)cc1)c1cc(S(=O)(=O)c2ccccc2)cs1 | false
C=C1C(=O)OC2C1CCC(C)C1C=CC(=O)C12C (stereo not given) | false
CC(=O)n1cc(CC(C)O)c(=O)[nH]c1=O (stereo not given) | false
CN1C(c2ccccc2)CC(C)(O)CC1c1ccccc1 (stereo not given) | false
CC(=O)NC1C(OCc2ccccc2)OC(CO)C(O)C1OCC(=O)NC(C)C(=O)NC(CCC(=O)NCCCCCNc1c2ccccc2nc2cccc([N+](=O)[O-])c12)C(N)=O (stereo not given) | true

Each compound tested received a call. Report the one for CCC1(c2ccc(N)cc2)CCC(=O)NC1=O (stereo not given) [AMINOGLUTETHIMIDE] .
false

Outcome logged for COc1cc2c(cc1OC)-c1[nH]c3ccc([N+](=O)[O-])cc3c1CC(=O)N2 in this assay:
false

Outcome? O=c1n(-c2ccccc2)c(=O)n2n1C1C=CC2CCCCCC1
false

What call does the record list for Cc1ccc2c(c1CCCC(C)(C)O)C(=O)C(O)=C(C(C)C)C2=O ?
false

Please state the recorded outcome for this compound: Nc1c(C(=O)c2ccccc2)nnc2ccccc12
false

====

Test system: K562
experimental-details: NCI tumour cell line growth inhibition, 48 h
Active and inactive are the calls of the source. No stated cut-off is given here; in the data, active = GI50 up to about 1.1 µM and inactive = higher.
Your answer must be one of the following: true (active), false (inactive)

CCOC(=O)[C@H]1Nc2ccc(Cl)cc2[C@H]2OCC[C@@H]12 | false
O=C1C=CC(=O)c2c(O)c(N(CCCl)CCCl)c(Cl)c(O)c21 | false
O=C1c2ccccc2-c2c1c1ccccc1c(=O)n2-c1ccccc1 | false
CC(C)=CC(=O)C/C(=N\NC(N)=S)C(=O)Nc1ccc(Cl)cc1 | false
CCCCCC(=O)OC[n+]1ccc2c(C)c3[nH]c4ccc(OC)cc4c3c(C)c2c1 | true
O=C(Nc1ccccc1)N(C1=NCC(CI)S1)c1ccc(F)c(F)c1 (stereo not given) | false
C1CC[C@H]2SSC3CCCC[C@H]3SSC2C1 (stereo not given in full) | false
O=c1[nH]n(Cc2ccccc2)c2ccc([N+](=O)[O-])cc12 | false
c1ccc2c(c1)CCCN1CCc3ccccc3C21 (stereo not given) | false
COc1cccc(-n2nnc3c(N)nc(N)nc32)c1 | false

Called result for N#Cc1c(C#N)c(SSc2c(C#N)c(C#N)c(N)n2-c2ccc(F)cc2)n(-c2ccc(F)cc2)c1N
false

Please let me know the test result on file for Nc1c(C(=O)c2ccccc2)nnc2ccccc12 .
false

Would you mind telling me which call this test gave CC(=O)Nc1ccc(/C=C/C(=O)c2sc(-c3cccnc3)nc2C)cc1 ?
false

Call for entry Clc1cc(-c2ccccc2)nc(Nc2nc3ccccc3[nH]2)n1 :
false

Write down the call the test reported for this molecule. Item: O=S(=O)(NC1CCCCC1)c1ccc2c(c1)OCCOCCOCCOCCO2
false

Outcome? CC(=O)Nc1cc(/C=C\C(=O)N2CC(CCl)c3c2cc(N)c2ccccc32)n(C)n1 (stereo not given)
true

Which outcome was assigned to CCCCn1c(-c2ccc([N+](=O)[O-])cc2)cs/c1=N/N=C1\C(=O)Nc2ccc(Br)cc21 in this test?
false

Could you kindly confirm the outcome this assay logged for O=[N+]([O-])c1cccc(/C=N\NS(=O)(=O)c2ccc(Cl)cc2)c1O ?
false

Assay outcome for CC[C@H]1C=CCC[C@@]2(C[C@@H]3CC[C@@H]4[C@H](C(=O)OCCCCCCCCCCCCCCCC(=O)N(CCCNC(C)=O)C[C@H](CCNC(C)=O)OC(C)=O)[C@]5(CCC[C@@H](C)O5)NC(=[N+]34)N2)O1 : what was it?
true

Tell me the recorded outcome of this test for Cc1ccc2c(c1C)CC1(Cc3c(ccc4c3CCC4)C1=O)C2=O (stereo not given) .
false

====

Tested on: SK-MEL-5
experimental-details: NCI tumour cell line growth inhibition, 48 h
Calls of active or inactive are those of the source. Cut-off read from the data, not from the text of the source: active = GI50 up to about 1.1 µM and inactive = higher.
measured-property: GI50

CCC1(c2ccc(N)cc2)CCC(=O)NC1=O (centres undefined) [AMINOGLUTETHIMIDE] | 2090 µM (inactive)
CC1=C(C(=O)NNC(=O)C(N)=O)CC(C(=O)NNC(=O)C(N)=O)=C(C)N1 | > 100 µM (inactive)
Ic1ncnc2c1ncn2C1CCCO1 (centres undefined) | > 100 µM (inactive)
CCOC(=O)Cc1csc2[n+]1C(=O)/C(=C\c1cccc(Cl)c1Cl)S2 | 8.93 µM (inactive)
Cc1ccc(C)n1-c1ccccc1C1SCCCS1 | > 100 µM (inactive)

Output measured GI50 for this item: CN(CC(=O)N1CC(CCl)c2ccc([N+](=O)[O-])cc21)CC(=O)N1CC(CCl)c2ccc([N+](=O)[O-])cc21 (centres undefined)
98.9 µM (inactive)

Numbers sourced from ChEMBL document CHEMBL1201862.
